- Tested on: SW-620 colon
- Assay Method Text: NCI-60 one-dose screen, 48 h (100 = growth as untreated, 0 = no growth, -100 = all killed)
- Experimental Context: 10 µM unless noted
- Experimental: Growth inhibition of the SW-620 human tumor cell line is measured as a screen for anti-cancer activity. Cells are grown in 96 well plates and exposed to the test compound for 48 hours. Compounds are tested at a single concentration, which is 10^-5 M for most compounds. The reported endpoint is percent growth (GI% or GIPRCNT), where numbers from 0 - 100% represent growth inhibition, and numbers from -100% - 0 represent cell death. For example, a value of 40 represents 60% growth inhibition. […]
Compounds without any hit were thinned out: in the full panel of roughly 83,000, 20% have a hit.
Hi there, I'd appreciate the recorded growth for every entry that follows.
Give bare numbers, in %.

// below: answered compounds
O=C/C=C/c1ccco1 ... 104
CCOC(=O)c1ccccc1C(=O)OCC ... 102
Cc1c2ccncc2c(C)c2c1[nH]c1ccccc12 ... -64.1

State the recorded growth for every item in the following list.
1. C[C@]12CCc3sc(Nc4ccc(O)cc4)nc3C1=CC[C@@H]1[C@@H]2CC[C@]2(C)C(=O)CC[C@@H]12
2. C/C(=C(\c1ccc(OCCN2CCOCC2)cc1)c1ccc(OC(=O)Cc2ccccc2)cc1)c1ccc(Cl)cc1
3. Cn1cc(C(=O)C[n+]2ccccc2)c2ccccc21
4. CC/C(=C(\c1ccc(OCCN2CCOCC2)cc1)c1ccc(OC(=O)Cc2ccccc2)cc1)c1ccc(Cl)cc1
5. COc1ccc2c(c1)c(-c1nc(-c3cn(C)c4ncccc34)cs1)cn2CCCCN1CCOCC1
6. O=C(NC1=NCC[Se]1)c1ccccc1O
7. CC1=C([Te]c2ccccc2)C(=O)c2ccccc2C1=O

result:
1. -32.2
2. 98.6
3. 106
4. 99.9
5. -77.1
6. 72.9
7. -88.2

###

- Test system: SNB-19 CNS
- Assay Method Text: NCI-60 one-dose screen, 48 h
- Experimental Context: 10 µM unless noted
This is part of a sample that, as a whole, favours compounds with a hit. Of some 83,000 tested, about 20% had one in any assay. Active and inactive are the calls of the source. The calls were made as follows: active = growth percent below 10; inactive = the rest.
Your reply should match one of these outcome classes. yes (1) = active, no (0) = inactive

ClC1OC(Cl)(Cl)C(Cl)(Cl)OC1(Cl)Cl (stereo unspecified) ... no (0)
Cc1cc2c(cc1-c1ccnc(/C=C/C(=O)O)c1)C(C)(C)CCC2(C)C ... no (0)
CCCCn1c(=O)c(C(=O)NCc2ccccc2Cl)c(O)c2ccccc21 ... no (0)
CC(=O)Cc1ccc2c(c1)OCO2 ... no (0)
CC(=O)Nc1nc2c(s1)C1=CC[C@H]3[C@@H]4CC[C@H](OC(C)=O)[C@@]4(C)CC[C@@H]3[C@@]1(C)CC2 ... no (0)

query: Kindly provide the recorded test outcome for the following compound: Oc1ccc(O)c(Cl)c1
result: no (0)

query: Cc1c2ccncc2c(C)c2c1[nH]c1ccccc12 ?
result: yes (1)

query: Moving on to the next compound: N[C@@H](CCC(=O)CCl)C(=O)O
result: no (0)

query: Field entry: COC12CC3(C)C(C4=CC(=O)OC4)CCC3(O)C3CCC4=CC(=O)CCC4(CO1)C32 (stereo unspecified)
result: no (0)

query: Next compound up: Cc1nc2ccccc2c(=O)n1-c1ccccc1F
result: no (0)

query: C[C@@H]1C/C=C\C(=O)O[C@H](/C=C/C#C/C=C/C(C)(C)[C@@H](O)c2cccc(O)c2Br)[C@@H](C)/C=C/[C@H](C)C[C@H](OC(N)=O)C1 ?
result: no (0)

query: Same again, this time with C/C(=C\c1ccn(-c2ccc(N)c(C(F)(F)F)c2)n1)[C@@H]1C[C@@H]2O[C@]2(C)CCC[C@H](C)[C@H](O)[C@@H](C)C(=O)C(C)(C)[C@@H](O)CC(=O)O1
result: no (0)

###

- Tested on: T-47D breast
- Assay Method Text: NCI-60 one-dose screen, 48 h (100 = growth as untreated, 0 = no growth, -100 = all killed)
- Experimental Context: 10 µM unless noted
- Description: Growth inhibition of the T-47D human tumor cell line is measured as a screen for anti-cancer activity. Cells are grown in 96 well plates and exposed to the test compound for 48 hours. Compounds are tested at a single concentration, which is 10^-5 M for most compounds. The reported endpoint is percent growth (GI% or GIPRCNT), where numbers from 0 - 100% represent growth inhibition, and numbers from -100% - 0 represent cell death. For example, a value of 40 represents 60% growth inhibition. […]
About 83,000 compounds went through this panel and 20% of them were active in at least one assay; those are over-represented in the sample as a whole.
Rule: growth of 90% or more gives 1.0; anything lower gives 0.0.

COC(=O)[C@@H](C)C[C@H](Cc1ccccc1)NC(=O)c1cccc([C@@H](C[C@H](C(C)C)N(C)C(=O)[C@@H](NC(=O)[C@H]2CCCCN2C)C2CC2)OC(C)=O)n1 ... 0.0

query: // inclusive: growth at least 90%? input: CN1C2CCC1[C@@H](COC(=O)c1ccccc1)[C@@H](O)C2 (some centres undefined)
result: 1.0

query: Subsequent entry: C=CC[PH+](c1ccccc1)c1ccccc1.C=CC[PH+](c1ccccc1)c1ccccc1.[Pt+2].[S-]c1ncccn1.[S-]c1ncccn1
result: 0.0

query: Same read-out for CCN1C(=O)CC(=O)N(CC)C1=S ?
result: 1.0

###

- System: SF-268 CNS
- Assay Method Text: NCI-60 one-dose screen, 48 h (100 = growth as untreated, 0 = no growth, -100 = all killed)
- Experimental Context: 10 µM unless noted
The panel holds about 83,000 compounds, 20% with a hit somewhere; the sample as a whole holds those more often.
Test Readout: growth (%)
Numbers only, in %.

Field: growth. Fill in for each record below.
1. CO/N=C1\CC[C@]2(C)[C@H]3CC[C@]4(C)C(=O)CC[C@H]4[C@@H]3C[C@@H]3SC(N)=N[C@@]32C1
2. CC[PH+](CC)CC.O=COC1OC([S-])C(OC=O)C(OC=O)C1OC=O.[Au+] (centres undefined)
3. O=C1C=C(N2CC2)c2ccccc2C1=O

result:
93.5
-78.5
51.6

###

- System: 786-0 renal
- Assay Method Text: NCI-60 one-dose screen, 48 h (100 = growth as untreated, 0 = no growth, -100 = all killed)
- Experimental Context: 10 µM unless noted
The panel holds about 83,000 compounds, 20% with a hit somewhere; the sample as a whole holds those more often.
Decision: growth >= 50% yields 1, all other cases yield 0.

Study these solved cases before continuing.
CCCN1C(=O)NC(=O)C(CC)(N2C(=O)c3c(F)c(F)c(F)c(F)c3C2=O)C1=O (configuration not stated) ... 0
N#CCCc1ccccc1 ... 1
COc1c(O)cc2c(c1OC)-c1ccc(SC)c(=O)cc1C(NC(C)=O)CC2 (configuration not stated) ... 0

query: Item Cc1ccc(NC2=N[C@]34CC(=O)CC[C@]3(C)[C@H]3CC[C@]5(C)C(=O)CC[C@H]5[C@@H]3C[C@@H]4S2)c(C)c1 with growth of 50% or above?
result: 0

query: Request: CC[C@H](C)[C@H](NC(=O)[C@H]1CCCCN1C)C(=O)N(C)[C@H](CCc1nc(C(=O)N[C@@H](Cc2ccccc2)C[C@H](C)C(=O)O)cs1)C(C)C
result: 0

###

- Tested on: HCT-116 colon
- Assay Method Text: NCI-60 one-dose screen, 48 h
- Experimental Context: 10 µM unless noted
The panel holds about 83,000 compounds, 20% with a hit somewhere; the sample as a whole holds those more often. Activity calls are given as the source filed them. The calls were made as follows: active = growth percent below 10; inactive = the rest.
Field 'call' accepts Yes = active, No = inactive

Some entries whose results are on file:
Cc1ccc(NC2=N[C@]34CC(=O)CC[C@]3(C)[C@H]3CC[C@]5(C)C(=O)CC[C@H]5[C@@H]3C[C@@H]4S2)c(C)c1 ... Yes
COc1ccc(N)cc1OC ... No
COc1cc(/C=C\[N+](=O)[O-])ccc1OCc1ccccc1 ... Yes
O=[N+]([O-])c1ccc(OCc2ccc(S(=O)(=O)F)c(Cl)c2)c(Cl)c1 ... No
C[C@]12C[C@H](c3ccoc3)OC(=O)[C@H]1CC[C@@]1(C)[C@@H]2[C@H]2C=C[C@]1(O)C(=O)O2 ... No
O=C1C=C(N2CC2)c2ccccc2C1=O ... No
O=[P+](O)c1cccnc1 ... No
O=C(O)C(Br)CBr (configuration not stated) ... No
CC(=O)Cc1ccc2c(c1)OCO2 ... No
CCC(=O)C(CC(C)[N+](C)(C)C)(c1ccccc1)c1ccccc1 (configuration not stated) ... No

query: Record lookup: outcome of this test for COc1cc2c(cc1OC)-c1c3c(cc4c1[C@@H](C2)N(C)CC4)OCO3 ?
result: No
